system: NCI-H23 lung; assay: NCI-60 one-dose screen, 48 h (100 = growth as untreated, 0 = no growth, -100 = all killed); details: 10 µM unless noted
This is part of a sample that, as a whole, favours compounds with a hit. Of some 83,000 tested, about 20% had one in any assay.
Measure Name: growth (%)
Please state the figure in %; there is no need to write the unit.

Take a look at these entries with their results.
| Molecule | Target Under Test | Unit Of Measurement | growth |
| --- | --- | --- | --- |
| Cn1c2ccccc2c2nnc(NCCCCO)nc21 | NCI-H23 lung | % | 84.3 |
| CCCc1cccc(CCC)c1NC(=O)Nc1cc(Cl)cc(Cl)c1 | NCI-H23 lung | % | 101 |
| CCOc1ccc(NC(=S)N2CCC(CCCC3CCN(C(=S)Nc4ccc(OCC)cc4)CC3)CC2)cc1 | NCI-H23 lung | % | 75.8 |
| c1cc(CNCCNCc2ccncc2)ccn1 | NCI-H23 lung | % | 112 |

Query: Consider the molecule ClCC(Cl)C1CCC(Cl)C(Cl)C1 (stereo unspecified) and give its measured growth.
Reply: 105

Query: Entry under review: `Cc1cc(CC(=O)NCCO)n(CCO)c(=O)c1` . Reported growth?
Reply: 101

* * *

test system: M14 melanoma; experiment: NCI-60 one-dose screen, 48 h; details: 10 µM unless noted
Compounds without any hit were thinned out: in the full panel of roughly 83,000, 20% have a hit. Active and inactive are the calls of the source. The calls were made as follows: active = growth percent below 10; inactive = the rest.
Valid outcomes are listed here; reply with one: T = active, F = inactive

| Molecule | Discrete Label |
| --- | --- |
| Nc1ccn(C2OC(CO)C(O)C2F)c(=O)n1 (stereo not drawn) | F |
| Cc1ccccc1CC(N)C(=O)O (stereo not drawn) | F |
| Nc1nnc2cc(F)ccc2n1 | F |
| CC(=O)c1cccc(O)c1 | F |

Query: Hi, sorry to bother you, what did the test record for `O=C1C=Cc2ccccc2/C1=C/c1[nH]c(=O)[nH]c1O` ?
Reply: F

Query: For `CCOC(=O)CNC(=O)Sc1ccc(C(C)(C)C)cc1` , which call appears in the assay record?
Reply: F

Query: In this assay, the call recorded for `Oc1cc(O)c2c(c1)O[C@H](c1ccc(O)c(O)c1)[C@@H](O)C2` was what?
Reply: F

Query: Record lookup: outcome of this test for `Cc1cccc(-[n+]2noc(N)n2)c1` ?
Reply: F

* * *

system: NCI-H322M lung; test: NCI-60 one-dose screen, 48 h; settings: 10 µM unless noted
Compounds without any hit were thinned out: in the full panel of roughly 83,000, 20% have a hit. The source made the active and inactive calls. How the source made its calls: active means growth percent below 10; inactive means the rest.
Choose one outcome from this list and give only that: active, inactive

Reference set (3 entries):
| Compound | Discrete Label |
| --- | --- |
| O=C(Nc1ccc([N+](=O)[O-])cc1)C(=O)Nc1ccc([N+](=O)[O-])cc1 | inactive |
| Ic1cccs1 | inactive |
| c1ccc2c(NCCCN3CCN(CCCNc4c5ccccc5nc5ccccc45)CC3)c3ccccc3nc2c1 | active |

Query: Assay result, entry NCC(O)C(O)C(O)C(O)CO (configuration not stated) — outcome?
Reply: inactive

Query: Could you check what this test reported for `ON1CCCC1` ?
Reply: inactive

Query: Recorded call for `Cc1cc2nc(C)c(C)nc2cc1C` ?
Reply: inactive

Query: Any idea what this test logged for `NC(CCl)=NCC12CC3CC(CC(C3)C1)C2` ?
Reply: inactive
